A collection of molecules and their measured growth
- System: NCI-H23 lung
- assay: NCI-60 one-dose screen, 48 h (100 = growth as untreated, 0 = no growth, -100 = all killed)
- assay_context: 10 µM unless noted
This is part of a sample that, as a whole, favours compounds with a hit. Of some 83,000 tested, about 20% had one in any assay.
The figure you give is taken to be in %; do not add the unit.

Some solved entries appear below for comparison.
CC(C)n1cnc2c(Nc3cccc(Cl)c3)nc(N[C@H]3CCCC[C@@H]3N)nc21 | 61.7
CCOC(=O)/C(C#N)=C\Nc1ccc2ncnc(Nc3ccc(Cl)cc3Cl)c2c1 | 99.5
CCc1nnc(NC(=O)c2nnn(-c3ccccc3)c2-c2ccco2)s1 | 91.7

Prompt: Field: growth (NCI-H23 lung). Entry: `O=C(O)CCC/C=C\C[C@H]1C=CC(=O)/C1=C/C[C@@H](O)CCc1cccc(C(F)(F)F)c1`
Response: -22.1

Prompt: Then O=C1CCC(C(=O)NCCNCCNC(=O)C2CCC(=O)N2)N1 (centres undefined) ?
Response: 106

Prompt: Then `CCN(CC)S(=O)(=O)c1ccc(NC(=O)CSc2nnc(C)n2-c2ccccc2)cc1` ?
Response: 97.6

Prompt: Then `NS(=O)(=O)c1ccc(-n2nc(-c3ccc(Cl)cc3)c3ccccc3c2=O)cc1` ?
Response: 101

Prompt: Then `COc1cccc(-c2nc(-c3ccc(NS(=O)(=O)c4ccccc4)cc3)[nH]c2-c2ccnc(Br)c2)c1` ?
Response: 25.8

Prompt: Then `CN1CCN(c2ccc(-c3ccc4ncc(C#N)c(Nc5ccc(F)c(Cl)c5)c4c3)cc2)CC1` ?
Response: 77.4

This collection of values is drawn from PubChem BioAssay (NCI).
